Test system: HIV-1
Experiment: Antiviral activity: inhibition of P24 production in MT-2 cells
Type: cell-based, HIV-1 IIIB
Design: dose or concentration left out as unconfirmed
Condition Info: Human immunodeficiency virus 1, MT2; Table 1; read-out: percentage of inhibition of P24 nucleoprotein production
Recorded inhibition by entry
Measurement Type: inhibition

[[record]]
compound = "c1cnc2c(c1)CCCCCCCCCC2"
system_under_test = "HIV-1"
measurement_type = "inhibition"
test_value = "53%"

[[record]]
compound = "Nc1ccc2c3c(cccc13)-c1ccccc1-2"
system_under_test = "HIV-1"
measurement_type = "inhibition"
test_value = "100%"

[[record]]
compound = "O=c1cc2oc3cc(O)c(O)cc3c(-c3ccccc3)c-2cc1O"
system_under_test = "HIV-1"
measurement_type = "inhibition"
test_value = "85%"

[[record]]
compound = "CC(C)C[C@H](NC(=O)[C@H](C)NC(=O)[C@H](CC(C)C)NC(c1ccccc1)(c1ccccc1)c1ccccc1)C(=O)O"
system_under_test = "HIV-1"
measurement_type = "inhibition"
test_value = "14%"

[[record]]
compound = "O=C1OC(=O)C2C3c4ccccc4C(c4ccccc43)C12 (centres unmarked)"
system_under_test = "HIV-1"
measurement_type = "inhibition"
test_value = "82%"

[[record]]
compound = "CC1=C(C(=O)O)C(=O)C(C(C)(C)C)=CC1=C(c1cc(C(C)(C)C)c(O)c(C(=O)O)c1C)c1cc(C(C)(C)C)c(O)c(C(=O)O)c1C"
system_under_test = "HIV-1"
measurement_type = "inhibition"
test_value = "38%"

[[record]]
compound = "C=CC1=C(C)c2cc3[nH]c(cc4nc(cc5[nH]c(cc1n2)c(C)c5CO)C(C)=C4CCC(=O)O)c(CCC(=O)O)c3C"
system_under_test = "HIV-1"
measurement_type = "inhibition"
test_value = "100%"

[[record]]
compound = "O=C(O)c1ccc(-c2c3nc(c(-c4ccc(C(=O)O)cc4)c4ccc([nH]4)c(-c4ccc(C(=O)O)cc4)c4nc(c(-c5ccc(C(=O)O)cc5)c5ccc2[nH]5)C=C4)C=C3)cc1"
system_under_test = "HIV-1"
measurement_type = "inhibition"
test_value = "100%"

[[record]]
compound = "CC1=C(CCC(=O)O)c2cc3[nH]c(cc4nc(cc5[nH]c(cc1n2)c(C(O)CO)c5C)C(C(O)CO)=C4C)c(C)c3CCC(=O)O (centres unmarked)"
system_under_test = "HIV-1"
measurement_type = "inhibition"
test_value = "99%"

[[record]]
compound = "O=C(O)COc1cc2oc3cc(=O)c(OCC(=O)O)cc-3c(-c3ccccc3)c2cc1OCC(=O)O"
system_under_test = "HIV-1"
measurement_type = "inhibition"
test_value = "88%"

[[record]]
compound = "O=C(O)CCC1=C(CC(=O)O)c2cc3[nH]c(cc4nc(cc5[nH]c(cc1n2)c(CCC(=O)O)c5CC(=O)O)C(CC(=O)O)=C4CCC(=O)O)c(CC(=O)O)c3CCC(=O)O"
system_under_test = "HIV-1"
measurement_type = "inhibition"
test_value = "100%"

[[record]]
compound = "Nc1ccc2c(c1)Cc1cc(Br)ccc1-2"
system_under_test = "HIV-1"
measurement_type = "inhibition"
test_value = "19%"

[[record]]
compound = "C=CC1=C(C)c2cc3[nH]c(cc4nc(cc5[nH]c(cc1n2)c(C)c5C=C)C(C)=C4CCC(=O)O)c(CCC(=O)O)c3C"
system_under_test = "HIV-1"
measurement_type = "inhibition"
test_value = "100%"

[[record]]
compound = "C1=Cc2nc1c(-c1ccncc1)c1ccc([nH]1)c(-c1ccncc1)c1nc(c(-c3ccncc3)c3ccc([nH]3)c2-c2ccncc2)C=C1"
system_under_test = "HIV-1"
measurement_type = "inhibition"
test_value = "0%"

